- protocol.conditions: cell viability/%
Where a SMILES comes first, the peptide text is derived from it. [ ]: non-standard residue; d: D form. The star is where a group is joined. NHCH2CH2OH = OCCN*; For = O=C*
endpoint.label: viability
# number then unit; no other words

{"compound": "CNC(=O)C[C@@H](NC(=O)[C@@H](NC(=O)[C@H](NC(=O)[C@H](C)NC(=O)[C@@H](CC(C)C)NC(=O)[C@H](C)NC(=O)CNC(=O)[C@@H](NC=O)C(C)C)C(C)C)C(C)C)C(=O)N[C@@H](Cc1c[nH]c2ccccc12)C(=O)N[C@@H](C(=O)N[C@@H](Cc1c[nH]c2ccccc12)C(=O)N[C@@H](C(=O)N[C@@H](Cc1c[nH]c2ccccc12)C(=O)N[C@H](CC(C)C)C(=O)N[C@@H](Cc1c[nH]c2ccccc12)C(=O)NCCO)C(C)C)C(C)C [compound 3596] (For-VGA[dL]A[dV]V[dD](NHMe)W[dV]W[dV]W[dL]W-NHCH2CH2OH)", "viability": "100%"}
{"compound": "CNC(=O)C[C@@H](NC(=O)[C@@H](NC(=O)[C@@H](CC(C)C)NC(=O)[C@H](C)NC(=O)[C@H](NC(=O)[C@H](C)NC(=O)CNC(=O)[C@@H](NC=O)C(C)C)C(C)C)C(C)C)C(=O)N[C@@H](Cc1c[nH]c2ccccc12)C(=O)N[C@@H](C(=O)N[C@@H](Cc1c[nH]c2ccccc12)C(=O)N[C@@H](C(=O)N[C@@H](Cc1c[nH]c2ccccc12)C(=O)N[C@H](CC(C)C)C(=O)N[C@@H](Cc1c[nH]c2ccccc12)C(=O)NCCO)C(C)C)C(C)C [compound 5991] (For-VGA[dV]A[dL]V[dD](NHMe)W[dV]W[dV]W[dL]W-NHCH2CH2OH)", "viability": "94.7%"}
{"compound": "CC(C)C[C@@H](NC(=O)[C@H](C)NC(=O)CNC(=O)[C@@H](NC=O)C(C)C)C(=O)N[C@@H](C)C(=O)N[C@H](CC(C)C)C(=O)N[C@H](C(=O)N[C@@H](C(=O)N[C@@H](Cc1c[nH]c2ccccc12)C(=O)N[C@@H](C(=O)N[C@@H](Cc1c[nH]c2ccccc12)C(=O)N[C@H](CC(C)C)C(=O)N[C@@H](Cc1c[nH]c2ccccc12)C(=O)N[C@H](CC(C)C)C(=O)N[C@@H](Cc1c[nH]c2ccccc12)C(=O)NCCO)[C@H](C)O)[C@H](C)O)C(C)C [compound 3858] (For-VGA[dL]A[dL]V[dT]W[dT]W[dL]W[dL]W-NHCH2CH2OH)", "viability": "100%"}

Prompt: Look up viability for this compound: CNC(=O)C[C@@H](NC(=O)[C@H](Cc1c[nH]c2ccccc12)NC(=O)[C@H](NC(=O)[C@@H](NC(=O)[C@@H](CC(C)C)NC(=O)[C@H](C)NC(=O)[C@H](NC(=O)[C@H](C)NC(=O)CNC(=O)[C@@H](NC=O)C(C)C)C(C)C)C(C)C)C(C)C)C(=O)N[C@@H](Cc1c[nH]c2ccccc12)C(=O)N[C@H](CC(C)C)C(=O)N[C@@H](Cc1c[nH]c2ccccc12)C(=O)N[C@H](CC(C)C)C(=O)N[C@@H](Cc1c[nH]c2ccccc12)C(=O)NCCO [compound 5838] (For-VGA[dV]A[dL]V[dV]W[dD](NHMe)W[dL]W[dL]W-NHCH2CH2OH)
Completion: 100%
